# target entity: KDR (Homo sapiens, UniProt P35968)
# Sequence (P35968 20-1356): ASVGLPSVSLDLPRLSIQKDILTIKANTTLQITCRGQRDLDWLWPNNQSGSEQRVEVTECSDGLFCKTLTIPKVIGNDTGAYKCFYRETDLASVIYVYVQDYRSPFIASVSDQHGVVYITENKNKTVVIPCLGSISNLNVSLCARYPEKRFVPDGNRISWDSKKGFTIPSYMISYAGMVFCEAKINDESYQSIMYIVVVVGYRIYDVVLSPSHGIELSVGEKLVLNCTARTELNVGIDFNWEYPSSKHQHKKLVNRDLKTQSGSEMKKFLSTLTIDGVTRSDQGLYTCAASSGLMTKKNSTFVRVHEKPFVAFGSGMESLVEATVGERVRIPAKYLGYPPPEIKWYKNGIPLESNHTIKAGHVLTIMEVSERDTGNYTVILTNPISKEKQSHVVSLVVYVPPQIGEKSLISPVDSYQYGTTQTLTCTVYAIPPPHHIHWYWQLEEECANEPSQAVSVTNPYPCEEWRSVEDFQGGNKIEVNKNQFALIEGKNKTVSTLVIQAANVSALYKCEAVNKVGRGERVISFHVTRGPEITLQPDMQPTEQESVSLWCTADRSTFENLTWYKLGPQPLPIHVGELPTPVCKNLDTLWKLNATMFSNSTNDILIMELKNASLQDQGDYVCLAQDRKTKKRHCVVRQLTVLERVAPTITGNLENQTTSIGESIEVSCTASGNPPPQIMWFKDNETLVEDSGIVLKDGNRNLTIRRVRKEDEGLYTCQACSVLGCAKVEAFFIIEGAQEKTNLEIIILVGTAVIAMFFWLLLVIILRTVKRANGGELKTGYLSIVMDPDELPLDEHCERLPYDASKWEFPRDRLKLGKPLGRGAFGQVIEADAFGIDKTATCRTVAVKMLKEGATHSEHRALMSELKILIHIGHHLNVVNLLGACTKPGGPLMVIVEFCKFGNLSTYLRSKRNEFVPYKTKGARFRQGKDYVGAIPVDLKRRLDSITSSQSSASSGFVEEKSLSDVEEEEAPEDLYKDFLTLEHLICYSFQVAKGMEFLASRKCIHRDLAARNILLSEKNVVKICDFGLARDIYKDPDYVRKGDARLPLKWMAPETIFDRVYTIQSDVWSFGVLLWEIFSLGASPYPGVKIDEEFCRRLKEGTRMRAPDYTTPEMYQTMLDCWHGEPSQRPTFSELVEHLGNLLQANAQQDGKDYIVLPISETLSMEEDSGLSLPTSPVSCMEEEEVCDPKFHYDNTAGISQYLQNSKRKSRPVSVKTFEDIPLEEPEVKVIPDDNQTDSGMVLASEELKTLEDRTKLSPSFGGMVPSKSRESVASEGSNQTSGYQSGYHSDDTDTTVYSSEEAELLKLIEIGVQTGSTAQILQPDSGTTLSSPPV
# procedure text: KDR cellular assay (KDR receptor phosphorylation ELISA)
# Type: cell-based
# Parameters: expressed in transfected cells; host or cells: 3T3 (embryonic mouse) cells
# applied conditions: KDR transfected 3T3 (embryonic mouse) cells, VEGF stimulated; read-out: IC50 inhibition of KDR phosphorylation
parameter measured: IC50

Incoming: What IC50 value was documented for this compound, "CS(=O)(=O)CCn1cc(Nc2ncc(Cl)c(N[C@H]3[C@@H](C(N)=O)[C@@H]4C=C[C@H]3C4)n2)cn1" ?
Outgoing: 100 to 1000 nM

###

Below: a set of entries, each annotated with reported EC15.
# Test system: NCI-H1299 cells
# procedure text: Induction of polyploidy in H1299
# Format: cell-based, Human
# applied conditions: Homo sapiens; NCI-H1299, 48 hours; read-out: EC15 (concentration of inhibitor necessary to induce polyploidy in 15% of cells)

>  <compound>
CS(=O)(=O)CCn1cc(Nc2ncc(Br)c(N[C@H]3[C@@H](C(N)=O)[C@@H]4C=C[C@H]3C4)n2)cn1 [Example 122]

>  <EC15>
< 100 nM

$$$$
>  <compound>
CCn1cc(Nc2ncc(C(F)(F)F)c(N[C@H]3[C@@H](C(N)=O)C[C@H]4C[C@@H]3C4(C)C)n2)cn1 [Example 168]

>  <EC15>
< 100 nM

$$$$
>  <compound>
NC(=O)[C@@H]1[C@H](Nc2nc(Nc3cnn(Cc4ccc(Cl)cc4)c3)ncc2Br)[C@H]2C=C[C@@H]1C2 [Example 172]

>  <EC15>
< 100 nM

$$$$
>  <compound>
Cn1cc(Nc2ncc(Cl)c(N[C@H]3[C@@H](C(N)=O)C[C@H]4C[C@@H]3C4(C)C)n2)cn1 [Example 165]

>  <EC15>
< 100 nM

$$$$
>  <compound>
Cc1nn(C)cc1Nc1ncc(Cl)c(N[C@H]2[C@@H](C(N)=O)[C@@H]3C=C[C@H]2C3)n1 [Example 134]

>  <EC15>
< 100 nM

$$$$

Incoming: What EC15 value was documented for this compound, NC(=O)[C@@H]1[C@H](Nc2nc(Nc3cnn(-c4ccccc4)c3)ncc2Cl)[C@H]2C=C[C@@H]1C2 [Example 174] ?
Outgoing: < 100 nM

Incoming: What EC15 value was documented for this compound, CN1CCC(Cn2cc(Nc3ncc(Cl)c(N[C@H]4[C@@H](C(N)=O)[C@@H]5C=C[C@H]4C5)n3)cn2)CC1 [Example 97] ?
Outgoing: 100 to 1000 nM

Incoming: What EC15 value was documented for this compound, Cn1cc(Nc2ncc([N+](=O)[O-])c(N[C@H]3[C@@H](C(N)=O)[C@@H]4C=C[C@H]3C4)n2)cn1 [Example 139] ?
Outgoing: < 100 nM

Incoming: What EC15 value was documented for this compound, COCCn1cc(Nc2ncc(Cl)c(N[C@H]3[C@@H](C(N)=O)[C@@H]4C=C[C@H]3C4)n2)cn1 [Example 96] ?
Outgoing: 100 to 1000 nM

Data credit: patent US8426408B2
